system: IL-6; test: Inhibition of IL-6 production by stimulated human peripheral blood leukocytes in vitro; format: cell-based; settings: Homo sapiens, Leukocyte, 50 μM; PMA-stimulated PBL; read-out: Percentage of inhibition of IL-6 production
Each record gets a class by inhibition at 50 µM: low interval (below 50%), middle interval (50% to below 70%), high interval (70% or more)

>  <COMPOUND>
CC[C@H]1OC(=O)[C@H](C)[C@@H](O[C@H]2C[C@@](C)(OC)[C@@H](OC(=O)CCNC(C)C)[C@H](C)O2)[C@H](C)[C@@H](O[C@@H]2O[C@H](C)C[C@H](N(C)C)[C@H]2O)[C@](C)(OC)C[C@@H](C)C(=O)N[C@H](C)[C@@H](O)[C@]1(C)O

>  <ASSIGNED_CLASS>
middle interval

$$$$
>  <COMPOUND>
CC[C@H]1OC(=O)[C@H](C)[C@@H](O[C@H]2C[C@@](C)(OC)[C@@H](OC(=O)CCN(C)CCN(CC)CC)[C@H](C)O2)[C@H](C)[C@@H](O[C@@H]2O[C@H](C)C[C@H](N(C)C)[C@H]2O)[C@](C)(OC)C[C@@H](C)C(=O)N[C@H](C)[C@@H](O)[C@]1(C)O

>  <ASSIGNED_CLASS>
middle interval

$$$$
>  <COMPOUND>
CC[C@H]1OC(=O)[C@H](C)[C@@H](O[C@H]2C[C@@](C)(OC)[C@@H](OC(=O)CCNC3CC3)[C@H](C)O2)[C@H](C)[C@@H](O[C@@H]2O[C@H](C)C[C@H](N(C)C)[C@H]2O)[C@](C)(OC)C[C@@H](C)C(=O)N[C@H](C)[C@@H](O)[C@]1(C)O

>  <ASSIGNED_CLASS>
low interval

$$$$
>  <COMPOUND>
CC[C@H]1OC(=O)[C@H](C)[C@@H](O[C@H]2C[C@@](C)(OC)[C@@H](OC(=O)CCN(CC)CC)[C@H](C)O2)[C@H](C)[C@@H](O[C@@H]2O[C@H](C)C[C@H](N(C)C)[C@H]2O)[C@](C)(OC)C[C@@H](C)C(=O)[C@H](C)[C@H]2N(C)C(=O)O[C@]12C

>  <ASSIGNED_CLASS>
low interval

$$$$
>  <COMPOUND>
C=CC(=O)OC1[C@H](C)O[C@@H](O[C@H]2[C@H](C)[C@@H](O[C@@H]3O[C@H](C)C[C@H](NC)[C@H]3O)[C@](C)(OC)C[C@@H](C)C(=O)N[C@H](C)[C@@H](O)[C@](C)(O)[C@@H](CC)OC(=O)[C@@H]2C)C[C@@]1(C)OC (some centres unmarked)

>  <ASSIGNED_CLASS>
high interval

$$$$
>  <COMPOUND>
CC[C@H]1OC(=O)[C@H](C)[C@@H](O[C@H]2C[C@@](C)(OC)[C@@H](OC(=O)CCN3CCCCCC3)[C@H](C)O2)[C@H](C)[C@@H](O[C@@H]2O[C@H](C)C[C@H](N(C)C)[C@H]2O)[C@](C)(OC)C[C@@H](C)C(=O)N[C@H](C)[C@@H](O)[C@]1(C)O

>  <ASSIGNED_CLASS>
high interval

$$$$
>  <COMPOUND>
CC[C@H]1OC(=O)[C@H](C)[C@@H](O[C@H]2C[C@@](C)(OC)[C@@H](OC(=O)CCN3CCCN(CCCN4CCCC4)CC3)[C@H](C)O2)[C@H](C)[C@@H](O[C@@H]2O[C@H](C)C[C@H](N(C)C)[C@H]2O)[C@](C)(OC)C[C@@H](C)C(=O)N[C@H](C)[C@@H](O)[C@]1(C)O

>  <ASSIGNED_CLASS>
high interval

$$$$
>  <COMPOUND>
CC[C@H]1OC(=O)[C@H](C)[C@@H](O[C@H]2C[C@@](C)(OC)[C@@H](OC(=O)CCN(C)C)[C@H](C)O2)[C@H](C)[C@@H](O[C@@H]2O[C@H](C)C[C@H](N(C)C)[C@H]2O)[C@](C)(OC)C[C@@H](C)C(=O)N[C@H](C)[C@@H](O)[C@]1(C)O

>  <ASSIGNED_CLASS>
middle interval

$$$$
>  <COMPOUND>
CC[C@H]1OC(=O)[C@H](C)[C@@H](O[C@H]2C[C@@](C)(OC)[C@@H](O)[C@H](C)O2)[C@H](C)[C@@H](O[C@@H]2O[C@H](C)C[C@H](N(C)C)[C@H]2O)[C@](C)(OC)C[C@@H](C)C(=O)[C@H](C)[C@@H](O)[C@]1(C)O [clarithromycin, reference compound]

>  <ASSIGNED_CLASS>
low interval

$$$$
>  <COMPOUND>
CC[C@H]1OC(=O)[C@H](C)[C@@H](O[C@H]2C[C@@](C)(OC)[C@@H](OCCCN)[C@H](C)O2)[C@H](C)[C@@H](O[C@@H]2O[C@H](C)C[C@H](N(C)C)[C@H]2O)[C@](C)(O)C[C@@H](C)CN(C)[C@H](C)[C@H]2OC(=O)O[C@@]21C [Example 51C]

>  <ASSIGNED_CLASS>
low interval

$$$$

Exercise: Dear colleague, I would appreciate it if you could identify the bin for "CC[C@H]1OC(=O)[C@H](C)[C@@H](O[C@H]2C[C@@](C)(OC)[C@@H](OC(=O)CCN3CCN(CCN(C)C)CC3)[C@H](C)O2)[C@H](C)[C@@H](O[C@@H]2O[C@H](C)C[C@H](N(C)C)[C@H]2O)[C@](C)(OC)C[C@@H](C)C(=O)N[C@H](C)[C@@H](O)[C@]1(C)O" and reply at your convenience.
Solution: middle interval

Exercise: Which category does the recorded inhibition at 50 µM put CC[C@H]1OC(=O)[C@H](C)[C@@H](O[C@H]2C[C@@](C)(OC)[C@@H](OC(=O)CCN3CC(C)CC(C)C3)[C@H](C)O2)[C@H](C)[C@@H](O[C@@H]2O[C@H](C)C[C@H](N(C)C)[C@H]2O)[C@](C)(OC)C[C@@H](C)C(=O)N[C@H](C)[C@@H](O)[C@]1(C)O (some centres unmarked) in?
Solution: middle interval

Exercise: State the class of the compound shown: "CC[C@H]1OC(=O)[C@H](C)[C@@H](O[C@H]2C[C@@](C)(OC)[C@@H](OC(=O)CCN(CC)CC)[C@H](C)O2)[C@H](C)[C@@H](O[C@@H]2O[C@H](C)C[C@H](N(C)C)[C@H]2O)[C@](C)(O)C[C@@H](C)CN(C)[C@H](C)[C@H]2OC(=O)O[C@@]21C"
Solution: high interval

Values were extracted from patent US8080529B2.
